The measurements presented in this section are drawn from paper PMC9352680.

- Target system: T1, PUF4 RNA-binding domain (Saccharomyces cerevisiae, UniProt P25339 537-888)
- T1 sequence: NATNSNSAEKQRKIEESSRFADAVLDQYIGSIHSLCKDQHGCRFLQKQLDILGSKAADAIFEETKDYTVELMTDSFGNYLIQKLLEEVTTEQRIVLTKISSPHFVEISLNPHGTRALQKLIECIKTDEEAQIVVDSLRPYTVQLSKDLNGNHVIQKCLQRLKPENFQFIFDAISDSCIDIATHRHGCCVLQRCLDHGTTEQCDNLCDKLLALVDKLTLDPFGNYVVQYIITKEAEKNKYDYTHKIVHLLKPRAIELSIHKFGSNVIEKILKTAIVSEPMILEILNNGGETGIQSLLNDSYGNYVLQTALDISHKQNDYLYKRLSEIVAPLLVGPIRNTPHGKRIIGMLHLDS
- Assay remarks: Mg; RNA-MaP; 20 mM Na-HEPES pH 7.4, 30 mM KOAc, 0.75 mM MgCl2, 0.1% Tween-20, 5% glycerol, 0.1 mg/mL BSA, 2 mM DTT; 25 C; 0.0125-409.6 nM protein
- Condition set: tags: N-His6-TEV cleaved; C-SNAP kept, Cy3B-labelled; label: tethered on chip by stalled RNA polymerase
Recorded metric: pKd
By convention, pKd is the negative base-10 log of a molar concentration.

Binder	pKd
Ia_S2_P5E.1_K5.1_C5.1_H5.1_[G2C]_A5.1_F5.1_T5.1 (ssRNA) RNA: UUUGAUUAAUAUGAUAUCGUUCUUUCUUCUAUUAUUAUUCUUUCUCGAUAUCAUAUUAAUCUUU	5.67

Let us examine a further case.
What the record says about UCUCUUUCUAUAUUAUUACUUCUCUU (ssRNA) [Id_ii_S1_P5E.3_K5.2_C5.2_[C-2T]_[T-1C]_H5.2_A5.1_F5.1_T5.2_[T11C]_[A12T]] : pKd is 6.41
